Assay: Cytotoxicity in HepG2 cells
Assay type: cell-based
Conditions: human

[
  {
    "SMILES TEXT": "NC(=O)c1ncn([C@@H]2O[C@H](CO)[C@@H](O)[C@H]2O)n1",
    "UNIT ANNOTATION": "µM",
    "INEQUALITY SIGN": "=",
    "CC50 at 3 days": 80
  },
  {
    "SMILES TEXT": "NC(=O)c1csc([C@@H]2O[C@H](CO)[C@@H](O)[C@H]2O)n1",
    "UNIT ANNOTATION": "µM",
    "INEQUALITY SIGN": ">",
    "CC50 at 3 days": 100
  }
]

----------
Test: in vitro
Assay type: cell-based

[
  {
    "COMPOUND": "NC(=O)c1cccc(C2OC(CO)C(O)C2O)c1 (stereo not shown) [Benzamide Riboside]",
    "CC50": "< 17 µM"
  }
]

----------
Assay: in vitro
Assay type: cell-based
RESULT TYPE: CC50 at 7 days (µM)

[
  {
    "MOLECULE": "COc1c(C)c2c(c(O)c1C/C=C(\\C)CCC(=O)O)C(=O)OC2 [Mycophenolic Acid (MPA), Mycophenolic Acid]",
    "RESULT TYPE": "CC50 at 7 days",
    "INEQUALITY SIGN": "=",
    "ENDPOINT RESULT": 75.4
  },
  {
    "MOLECULE": "NC(=O)c1csc(C2OC(COP(=O)(O)CP(=O)(O)OCC3OC(n4cnc5c(N)ncnc54)C(O)C3O)C(O)C2O)n1 (stereo not drawn) [β-CH2-TAD]",
    "RESULT TYPE": "CC50 at 7 days",
    "INEQUALITY SIGN": ">",
    "ENDPOINT RESULT": 100
  }
]

----------
System: MDBK cells
Test: Cytotoxicity in MDBK cells
Type: cell-based
Conditions: Table 2; 3 days; read-out: MDBK (3 Days) CC50
RESULT TYPE: CC50 (µM)

[
  {
    "COMPOUND": "COc1c(C)c2c(c(O)c1CCO)C(=O)OC2",
    "TARGET DESC": "MDBK cells",
    "UNIT ANNOTATION": "µM",
    "INEQUALITY SIGN": "=",
    "ENDPOINT RESULT": 7
  },
  {
    "COMPOUND": "NC(=O)c1cccc([C@@H]2O[C@H](COP(=O)(O)CP(=O)(O)OCC3OC(n4cnc5c(N)ncnc54)C(F)C3O)[C@@H](O)[C@H]2O)c1 (stereo partly shown)",
    "TARGET DESC": "MDBK cells",
    "UNIT ANNOTATION": "µM",
    "INEQUALITY SIGN": ">",
    "ENDPOINT RESULT": 100
  },
  {
    "COMPOUND": "NC(=O)c1ncn([C@H]2O[C@@H](CO)[C@H](O)[C@@H]2O)n1",
    "TARGET DESC": "MDBK cells",
    "UNIT ANNOTATION": "µM",
    "INEQUALITY SIGN": ">",
    "ENDPOINT RESULT": 100
  },
  {
    "COMPOUND": "COC(=O)CC/C(C)=C/Cc1c(O)c2c(c(C)c1OC)COC2=O",
    "TARGET DESC": "MDBK cells",
    "UNIT ANNOTATION": "µM",
    "INEQUALITY SIGN": "=",
    "ENDPOINT RESULT": 0.4
  }
]

FYI, the data here is from patent US20040266723A1.
